FYI, the data here is from paper PMC3889329.

Experiment: Pharmacokinetics in plasma and urine
Format: in vivo, human
Settings: human, plasma, po
QUANTITY: Tmax

INSERT INTO results (compound_string, quantity, obs_value) VALUES
  ('OC[C@H]1O[C@@H](c2ccc(Cl)c(Cc3ccc(O[C@H]4CCOC4)cc3)c2)[C@H](O)[C@@H](O)[C@@H]1O', 'Tmax', '1.5 to 3 h');
